# SYSTEM_UNDER_TEST: T1, cynomolgus monkey serum albumin (cynoSA), full length (cynomolgus monkey, UniProt A2V9Z4 25-608)
# T1 construct: mature; Immobilized on CM5 chip (SPR); the cynoSA experiment used a different Biacore chip; also called CySA
# ASSAY_REMARKS: SPR kinetics, immobilized albumin, 1:1 fit, 37 C
RESULT_TYPE: koff
# include the unit after the value

For orientation, consider the following solved cases.
Form field: reported koff of ADX_7016_E02 (L38T) (designed binder, Full His6-tagged entry; also called 6727_E08) MGVSDVPRDLEVVAATPTSLLISWDAPAVTVRYYRITYGREVQKYSDTGPLYIYQEFTVPGSKSTATISGLKPGVDYTITVYAVTGSGESPASSKPISINYRTEIDKPSQHHHHHH
0.171 s⁻¹

Similarly, ADX_7016_A01 (parent PKE2 Adnectin) (designed binder, N-terminal Met may be cleaved; also called 2629_E06; ADX_2629_E06) MGVSDVPRDLEVVAATPTSLLISWDAPAVTVRYYRITYGREVQKYSDLGPLYIYQEFTVPGSKSTATISGLKPGVDYTITVYAVTGSGESPASSKPISINYRTEIDKPSQHHHHHH ?
0.000391 s⁻¹

Similarly, ADX_7016_C03 (Y44Q) (designed binder, Full His6-tagged entry; also called 6727_B03) MGVSDVPRDLEVVAATPTSLLISWDAPAVTVRYYRITYGREVQKYSDLGPLYIQQEFTVPGSKSTATISGLKPGVDYTITVYAVTGSGESPASSKPISINYRTEIDKPSQHHHHHH ?
0.0444 s⁻¹

Could you now consider this next binder?
Form field: reported koff of ADX_7016_G01 (Y44S) (designed binder, Full His6-tagged entry; also called 6727_G02) MGVSDVPRDLEVVAATPTSLLISWDAPAVTVRYYRITYGREVQKYSDLGPLYISQEFTVPGSKSTATISGLKPGVDYTITVYAVTGSGESPASSKPISINYRTEIDKPSQHHHHHH
0.00426 s⁻¹
